Let's look at some molecules and their measured GPR17 Fold Induction (Over Vehicle; 3 μM).
Test system: Oligodendrocyte progenitor cells (OPCs)
TEST_METHOD_NOTES: In vitro OPC differentiation assay, GPR17 expression (immunocytochemistry)
ASSAY_CONDITIONS: 3 μM (10× concentration, final 0.3 μM); 72 hours; fold change over vehicle

| MOLECULE | RESULT |
| --- | --- |
| Cn1cc(-c2ccc3c(C4CCC(C(=O)OCc5ccccc5)C4)cnn3c2)cn1 (stereo not drawn) [Compound 137] | 0.99 |
| Cn1cc(-c2ccc3c(N4CCN(c5ncc(Cc6ccsc6)cn5)CC4)cnn3c2)cn1 [Compound 302] | 8.86 |
| CC(C)(C)OC(=O)N1CCN(c2cnn3cc(-c4ccc(F)cc4)ccc23)CC1 [Compound 207] | 2.24 |
| COCCn1cnc(-c2ccc3c(N4CCN(C(=O)OC(C)(C)C)CC4)cnn3c2)c1 [Compound 227] | 9.02 |
| Cn1cc(-c2ccc3c(N4CCN(c5ccc(Cc6ccccc6)nc5)CC4)cnn3c2)cn1 [Compound 151] | 20.40 |

Okay, next one:
Q: Supply recorded GPR17 Fold Induction (Over Vehicle; 3 μM) for C[C@@H](OC(=O)N1CCN(c2cnc3cc(-c4cnn(C)c4)cnn23)CC1)c1ccc(Cl)cc1 [Compound 282] here.
A: 6.40

###

Tested on: Oligodendrocyte progenitor cells (OPCs)
TEST_METHOD_NOTES: In vitro OPC differentiation assay, GPR17 expression (immunocytochemistry)
ASSAY_CONDITIONS: 3 μM (10× concentration, final 0.3 μM); 72 hours; fold change over vehicle
QUANTITY_NAME: GPR17 Fold Induction (Over Vehicle; 3 μM)

Known results for compounds:
| COMPOUND | TESTED_ON | RESULT |
| --- | --- | --- |
| Cn1cc(-c2ccc3c(N4CCN(c5ncc(CC6CCCOC6)cn5)CC4)cnn3c2)cn1 (centres unmarked) | Oligodendrocyte progenitor cells (OPCs) | 12.67 |
| Cn1cc(-c2ccc3c(N4CCN(c5ncc(Cc6cocn6)cn5)CC4)cnn3c2)cn1 | Oligodendrocyte progenitor cells (OPCs) | 5.33 |
| C[C@@H](OC(=O)N1CCN(c2cnn3cc(-c4cnn(C)c4)ccc23)CC1)c1ccc2ccccc2c1 | Oligodendrocyte progenitor cells (OPCs) | 9.00 |
| Cn1cc(-c2ccc3c(N4CCN(c5ncc(Oc6ccccc6)cn5)CC4)cnn3c2)cn1 | Oligodendrocyte progenitor cells (OPCs) | 6.36 |

Okay, next one:
Q: # return GPR17 Fold Induction (Over Vehicle; 3 μM) of Cn1cc(-c2ccc3c(N4CCN(c5nnc(Cc6ccccc6)o5)CC4)cnn3c2)cn1 (system: Oligodendrocyte progenitor cells (OPCs))
A: 5.02

###

Tested on: Oligodendrocyte progenitor cells (OPCs)
TEST_METHOD_NOTES: In vitro OPC differentiation assay, GPR17 expression (immunocytochemistry)
ASSAY_CONDITIONS: 3 μM (10× concentration, final 0.3 μM); 72 hours; fold change over vehicle
Let's look at some molecules and their measured GPR17 Fold Induction (Over Vehicle; 3 μM).
Just the number.

Known results for molecules:
| MOLECULE | NUMERIC_VALUE |
| --- | --- |
| Cn1cc(-c2cn3ncc(N4CCN(C(=O)OC(C)(C)C)CC4)c3cn2)cn1 | 4.28 |
| CC1CC(OC(=O)N2CCN(c3cnn4cc(-c5cnn(C)c5)ccc34)CC2)C1 (stereo not shown) | 6.67 |

Q: Supply recorded GPR17 Fold Induction (Over Vehicle; 3 μM) for CC(C)(C)OC(=O)N1CCN(c2cnn3cc(C4CCC(O)C4)ccc23)CC1 (stereo not shown) here.
A: 0.76

Q: Supply recorded GPR17 Fold Induction (Over Vehicle; 3 μM) for Cn1cc(-c2ccc3c(N4CCN(c5ncc([C@H](O)[C@@H]6CCCOC6)cn5)CC4)cnn3c2)cn1 here.
A: 14.76

Q: Supply recorded GPR17 Fold Induction (Over Vehicle; 3 μM) for [2H]c1c([2H])c(C(OC(=O)N2CCN(c3cnn4cc(-c5cnn(C)c5)ccc34)CC2)C([2H])([2H])[2H])c([2H])c([2H])c1Cl (stereo not shown) here.
A: 6.24

Q: Supply recorded GPR17 Fold Induction (Over Vehicle; 3 μM) for Cn1cc(-c2ccc3c(N4CCN(c5ncc(CC6CCCCC6)cn5)CC4)cnn3c2)cn1 here.
A: 6.53

Q: Supply recorded GPR17 Fold Induction (Over Vehicle; 3 μM) for Cn1cc(-c2ccc3c(N4CCN(c5nc(Cc6ccccc6)ns5)CC4)cnn3c2)cn1 here.
A: 5.22

###

System: Oligodendrocyte progenitor cells (OPCs)
TEST_METHOD_NOTES: In vitro OPC differentiation assay, GPR17 expression (immunocytochemistry)
ASSAY_CONDITIONS: 3 μM (10× concentration, final 0.3 μM); 72 hours; fold change over vehicle
GPR17 Fold Induction (Over Vehicle; 3 μM) below 4 gives Not met; GPR17 Fold Induction (Over Vehicle; 3 μM) at or above it gives Met.

| MOLECULE | LABEL_VALUE |
| --- | --- |
| c1ccc(Cc2cnc(N3CCN(c4cnn5cc(-c6cn[nH]c6)ccc45)CC3)nc2)cc1 [Compound 255] | Met |
| Cn1cc(-c2ccc3c(N4CCC(C(=O)NCc5ccccc5)CC4)cnn3c2)cn1 [Compound 146] | Met |

Q: Identify whether the reported GPR17 Fold Induction (Over Vehicle; 3 μM) of the following molecule is 4 or greater: Cn1cc(-c2ccc3c(N4CCN(c5nnc(Cc6ccccc6)s5)CC4)cnn3c2)cn1 [Compound 306]
A: Met

Q: Identify whether the reported GPR17 Fold Induction (Over Vehicle; 3 μM) of the following molecule is 4 or greater: Cn1cc(-c2ccc3c(N4CCN(c5ncc(Cc6nccs6)cn5)CC4)cnn3c2)cn1 [Compound 182]
A: Met

Q: Identify whether the reported GPR17 Fold Induction (Over Vehicle; 3 μM) of the following molecule is 4 or greater: Cn1cc(-c2ccc3c(N4CCN(c5ncc(C(O)C(F)(F)F)cn5)CC4)cnn3c2)cn1 (stereo not drawn) [Compound 285]
A: Met

###

Let's look at some compounds and their measured pIC50.
TESTED_ON: PDGFRα (Homo sapiens (Human), UniProt P16234)
Sequence (P16234 24-1089): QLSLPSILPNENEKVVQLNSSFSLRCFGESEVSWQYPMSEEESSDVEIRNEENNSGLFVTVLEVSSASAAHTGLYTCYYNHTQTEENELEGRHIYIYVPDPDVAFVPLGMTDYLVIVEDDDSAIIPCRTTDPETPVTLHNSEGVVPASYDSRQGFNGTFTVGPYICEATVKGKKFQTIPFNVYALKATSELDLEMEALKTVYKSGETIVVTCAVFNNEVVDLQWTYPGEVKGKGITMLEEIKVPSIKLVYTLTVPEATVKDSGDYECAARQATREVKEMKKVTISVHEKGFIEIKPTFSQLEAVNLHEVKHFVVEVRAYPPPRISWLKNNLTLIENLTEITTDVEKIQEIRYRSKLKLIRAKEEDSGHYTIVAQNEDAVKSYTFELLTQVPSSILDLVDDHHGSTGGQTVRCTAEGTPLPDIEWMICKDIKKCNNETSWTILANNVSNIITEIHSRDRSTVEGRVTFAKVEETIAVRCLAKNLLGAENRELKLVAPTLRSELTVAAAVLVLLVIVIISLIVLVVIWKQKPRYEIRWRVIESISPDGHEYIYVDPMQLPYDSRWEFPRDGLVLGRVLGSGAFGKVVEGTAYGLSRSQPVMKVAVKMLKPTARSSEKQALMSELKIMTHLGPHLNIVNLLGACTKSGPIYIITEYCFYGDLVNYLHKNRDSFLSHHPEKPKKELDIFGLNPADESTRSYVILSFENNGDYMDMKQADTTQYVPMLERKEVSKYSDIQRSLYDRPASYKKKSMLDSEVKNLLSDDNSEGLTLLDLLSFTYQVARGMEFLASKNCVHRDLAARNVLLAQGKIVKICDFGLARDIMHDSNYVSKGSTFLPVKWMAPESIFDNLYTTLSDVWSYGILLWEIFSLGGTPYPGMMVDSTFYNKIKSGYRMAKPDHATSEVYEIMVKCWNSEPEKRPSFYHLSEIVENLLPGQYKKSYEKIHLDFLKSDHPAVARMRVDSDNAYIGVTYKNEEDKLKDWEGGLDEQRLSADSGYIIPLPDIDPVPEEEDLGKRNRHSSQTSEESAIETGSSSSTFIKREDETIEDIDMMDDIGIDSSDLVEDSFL
TEST_METHOD_NOTES: PDGFRα kinase enzyme assay (Promega PDGFRα Kinase Enzyme System, ADP-Glo)
Assay type: biochemical
ASSAY_CONDITIONS: 11-point dose response, 10,000 nM to 0.169 nM; 150 uM ATP; BLQ = below limit of quantitation; read-out: IC50 Values on PDGFRα Kinase Inhibition, IC50
pIC50: −log10 of the molar value.

Known results for compounds:
| COMPOUND | TESTED_ON | pIC50 |
| --- | --- | --- |
| Cn1cc(-c2ccn3c(N4CCCN(C(=O)NCc5ccc(C(F)(F)F)cc5)CC4)cnc3n2)cn1 [Compound 120] | PDGFRα (Homo sapiens (Human), UniProt P16234) | < 5.00 |
| CN(CCN(C)c1cnc2cc(-c3cccnc3)ncn12)C(=O)OC(C)(C)C [Compound 99] | PDGFRα (Homo sapiens (Human), UniProt P16234) | < 5.00 |
| Cn1cc(-c2ccc3c(C(O)CCc4ncc(Cc5ccccc5)cn4)cnn3c2)cn1 (stereo not shown) [Compound 299] | PDGFRα (Homo sapiens (Human), UniProt P16234) | < 5.00 |

Okay, next one:
Q: Supply recorded pIC50 for Cn1cc(-c2ccc3c(N4CC(Nc5ncc(Cc6ccccc6)cn5)C4)cnn3c2)cn1 [Compound 149] here.
A: < 5.00

###

Let's look at some molecules and their measured log10(IC50).
TESTED_ON: UniProt:P16234
TEST_METHOD_NOTES: PDGFRα kinase enzyme assay (Promega PDGFRα Kinase Enzyme System, ADP-Glo)
Type: biochemical
ASSAY_CONDITIONS: 11-point dose response, 10,000 nM to 0.169 nM; 150 uM ATP; BLQ = below limit of quantitation; read-out: IC50 Values on PDGFRα Kinase Inhibition, IC50
Friendly reminder: values = log10 of IC50, unit nM.

Known results for molecules:
| MOLECULE | TESTED_ON | log10(IC50) |
| --- | --- | --- |
| CN(Cc1ccccc1)C(=O)C1CC=C(c2cnn3cc(-c4cnn(C)c4)ccc23)C1 (centres unmarked) | UniProt:P16234 | 3.56 |
| Cn1cc(-c2cnc3c(N4CCN(C(=O)OC(C)(C)C)CC4)cnn3c2)cn1 | UniProt:P16234 | 3.16 |
| Cn1cc(-c2ccc3c(N4CCN(C(=O)NCc5ccc(C(F)(F)F)cc5)CC4)cnn3c2)cn1 | UniProt:P16234 | 1.77 |
| Cn1cc(-c2ccc3c(N4CCN(Cc5csc(Cl)c5)CC4)cnn3c2)cn1 | UniProt:P16234 | 3.84 |
| Cn1cc(-c2ccc3c(N4CCN(c5ncc(CCC(O)c6ccccc6)cn5)CC4)cnn3c2)cn1 (centres unmarked) | UniProt:P16234 | 2.84 |

Q: Supply recorded log10(IC50) for CC1CC(OC(=O)N2CCN(c3cnn4cc(-c5cnn(C)c5)ccc34)CC2)C1 (centres unmarked) here.
A: 2.92

Q: Supply recorded log10(IC50) for C[C@H](OC(=O)N1CCN(c2cnn3cc(-c4cnn(C)c4)ccc23)CC1)c1ccccc1 here.
A: 2.90

Q: Supply recorded log10(IC50) for Cn1cc(-c2ccc3c(C4CCN(c5ncc(Cc6ccccc6)cn5)C4)cnn3c2)cn1 (centres unmarked) here.
A: 3.82

Q: Supply recorded log10(IC50) for Cn1cc(-c2ccc3c(N4CCN(c5ncc(C(O)C(F)(F)F)cn5)CC4)cnn3c2)cn1 (centres unmarked) here.
A: 3.88

Q: Supply recorded log10(IC50) for C[C@@H](OC(=O)N1CCN(c2cnn3cc(-c4cnn(C)c4)ccc23)CC1)c1ccc(F)c(F)c1 here.
A: 0.43

Q: Supply recorded log10(IC50) for Cn1cc(-c2ccc3c(N4CCN(c5ncc(Cc6ccccc6)cn5)CC4)cnn3c2)cn1 here.
A: 2.61

Q: Supply recorded log10(IC50) for C[C@H](OC(=O)N1CCN(c2cnn3cc(-c4cnn(C)c4)ccc23)CC1)c1ccc(Cl)cc1 here.
A: 3.17

Q: Supply recorded log10(IC50) for Cn1cc(-c2ccc3c(N4CCC(c5ncc(Cc6ccccc6)cn5)C4)cnn3c2)cn1 (centres unmarked) here.
A: 2.84
